# procedure-text: Solubility measurement of charge control agent in methanol
# Format: physicochemical
# settings: stirred 1 hour at 50° C., cooled to room temperature, 0.1 μm-filter, absorbance vs 20 ppm standard
metric: SMeOH (solubility in methanol)

SMeOH (solubility in methanol) for O=C(Nc1cccc([N+](=O)[O-])c1)c1cc2ccccc2c2c1[O][Fe]1([O]c3c(cc(Cl)cc3[N+](=O)[O-])/N=N/2)[O]c2c(cc(Cl)cc2[N+](=O)[O-])/N=N/c2c(c(C(=O)Nc3cccc([N+](=O)[O-])c3)cc3ccccc23)[O]1 ?
SMeOH = 0.65 g/100 ml)

Another: Cc1ccccc1NC(=O)c1cc2ccccc2c2c1[O][Fe]1([O]c3cc(Cl)c([N+](=O)[O-])cc3/N=N/2)[O]c2cc(Cl)c([N+](=O)[O-])cc2/N=N/c2c(c(C(=O)Nc3ccccc3C)cc3ccccc23)[O]1
SMeOH = 0.65 g/100 ml)

Just for reference, patent US6365314B1 is where these values come from.
